The origin of these recorded values is paper PMC12040169.

# Method summary: in vitro
# Test conditions: human, hela cells, % viability
Measured metric: viability at 28.5 h, 10 µM (%)
Give bare numbers, in %.

NC(=O)CSc1nnc(NC(=O)c2ccccc2)s1 [CBK287628]
92.8
O=c1cc(CO)oc(C(Nc2ccccn2)c2ccsc2)c1O (centres unmarked) [CBK296956]
106
O=C1CN(C(=O)Nc2ccc3[nH]ccc3c2)CCN1 [CBK155858]
87
O=C1CN(C(=O)NCc2ccc(Cl)cc2)CCN1 [CBK155867]
109
O=C(O)c1[nH]c2ccccc2c1NS(=O)(=O)c1cc(Cl)sc1Cl [CBK049886]
67.5

Give measured viability at 28.5 h, 10 µM for every item shown.
1. COc1ccccc1CCNC(=O)c1cnccn1 [CBK268147]
2. CC1CCN(S(=O)(=O)c2cc(C(=O)OCC(=O)c3ccccc3)c(Cl)cc2Cl)CC1 [CBK264470]
3. COc1cc(CNc2nc(-c3c(C)cccc3C)cn3ccnc23)cc(OC)c1OC [CBK037415]
4. CC(C)CC(=O)N1CCCC(n2c(=O)oc3ccc(Cl)cc32)C1 (centres unmarked) [CBK282891]

Data returned:
[59.7, 95.6, 91.1, 89.3]

Give measured viability at 28.5 h, 10 µM for every item shown.
1. CCCc1cc(CNC(=O)c2cc(C3CC3)nn2C)on1 [CBK282048]
2. Cc1nn2c(c1-c1ccccc1)NC(=O)CC2C(=O)O (centres unmarked) [CBK287118]
3. COc1cc(F)ccc1-c1ccnc2[nH]c(=O)ccc12 [CBK073727]
4. OC1CCN(CC(O)Cn2c3ccccc3c3ccccc32)CC1 (centres unmarked) [CBK305784]
5. O=C(NC[C@H]1C[C@@H]2CC[N@]1C[C@@H]2CN1CCN(c2ccccn2)CC1)Nc1ccccc1 [CBK289114]
6. CC(CCc1ccccc1)NC(=O)CN1CCOCC1 (centres unmarked) [CBK268994]
7. Cn1c(=O)c2[nH]c(NCCc3ccc(Cl)cc3)nc2n(C)c1=O [CBK269794]

Data returned:
1. 102
2. 95.3
3. 74.2
4. 100
5. 106
6. 93
7. 92

Give measured viability at 28.5 h, 10 µM for every item shown.
1. Cc1nnc(SCC(=O)Nc2ccc(CN3CCOCC3)cc2)n1C [CBK306092]
2. CC(C)(C)c1ccc(-c2nnc(SCC(=O)c3ccc(F)cc3)o2)cc1 [CBK067988]
3. O=C1NCC2(C/C=C/CCOc3ccccc31)CCN(Cc1ccccn1)CC2 [CBK292159]
4. O=C1NC(=O)C(CC(=O)N2CCC3(CCN(C(=O)Cc4c[nH]c5ccccc45)C3)C2)N1 (centres unmarked) [CBK131436]

Data returned:
102
102
84.2
92.8
